Test system: S. pneumoniae UC9912
Parameter: MIC. Scope: all listed entries.
# number only, unit µg/mL dropped from output

Here's what some known entries look like.
>>> meas_value("CC(F)(F)C(=O)NC[C@H]1CN(c2cc(F)c([C@H]3[C@@H]4CS(=O)(=O)C[C@@H]43)c(F)c2)C(=O)O1")
2
>>> meas_value("CCC(=O)NC[C@H]1CN(c2ccc([C@H]3[C@@H]4CN(C(=O)COC)C[C@@H]43)c(F)c2)C(=O)O1")
0.5
>>> meas_value("CC(=O)NC[C@H]1CN(c2ccc([C@H]3[C@@H]4CN(c5ncccn5)C[C@@H]43)c(F)c2)C(=O)O1")
1
>>> meas_value("O=C(NC[C@H]1CN(c2ccc([C@H]3[C@@H]4CS(=O)(=O)C[C@@H]43)c(F)c2)C(=O)O1)C1CCC1")
2
>>> meas_value("CCC(=O)NC[C@H]1CN(c2ccc([C@H]3[C@@H]4CN(C(=O)[C@@H](O)CO)C[C@@H]43)c(F)c2)C(=O)O1")
4

Q: Hello, please tell me recorded MIC for this one: CC(=O)NC[C@H]1CN(c2ccc([C@H]3[C@@H]4CN(C(=O)c5cn[nH]c5)C[C@@H]43)c(F)c2)C(=O)O1
Ans: 2

* * *

Let's go through some MIC measurements on S. pneumoniae UC9912 together.
Value expressed in µg/mL; do not type the unit.

Answered examples (5):
>>> meas_value("CC(=O)NC[C@H]1CN(c2ccc([C@H]3[C@@H]4CN(CCO)C[C@@H]43)c(F)c2)C(=O)O1")
1
>>> meas_value("CC(=O)NC[C@H]1CN(c2ccc([C@H]3[C@@H]4C[S+]([O-])C[C@@H]43)c(F)c2)C(=O)O1 (some centres unmarked)")
0.25
>>> meas_value("O=C(NC[C@H]1CN(c2cc(F)c([C@H]3[C@@H]4C[S+]([O-])C[C@@H]43)c(F)c2)C(=O)O1)C1CC1 (some centres unmarked)")
1
>>> meas_value("CCC(=O)NC[C@H]1CN(c2ccc([C@H]3[C@@H]4CN(C(=O)CO)C[C@@H]43)c(F)c2)C(=O)O1")
0.5
>>> meas_value("CC(=O)NC[C@H]1CN(c2ccc([C@H]3[C@@H]4CN(C(N)=O)C[C@@H]43)c(F)c2)C(=O)O1")
0.5

Q: Fill: MIC (S. pneumoniae UC9912) for this compound CC(=O)NC[C@H]1CN(c2ccc([C@H]3[C@@H]4CN(C(=O)CO)C[C@@H]43)cc2)C(=O)O1
Ans: 2

Q: Report the value of MIC obtained on S. pneumoniae UC9912 for NC(=O)N1C[C@@H]2[C@H](C1)[C@H]2c1ccc(N2C[C@H](CNC(=S)C(F)F)OC2=O)cc1F .
Ans: 0.25

Q: Supply MIC measured with S. pneumoniae UC9912 for CC(=O)NC[C@H]1CN(c2ccc([C@H]3[C@@H]4CN(C(=O)[C@H]5CCCO5)C[C@@H]43)c(F)c2)C(=O)O1 .
Ans: 2
